test system: SK-OV-3 ovarian; experiment: NCI tumour cell line growth inhibition, 48 h
Would you mind telling me the reported TGI of each entry?

| MOLECULE | MEASURED_ON | RESULT |
| --- | --- | --- |
| COc1cccc(N2C(=O)C3C4C=C5c6ccccc6N(c6ccccc6)C5(C3C2=O)[C@H]2C(=O)N(c3cccc(OC)c3)C(=O)[C@@H]42)c1 (stereo partly drawn) | SK-OV-3 ovarian | > 100 µM |
| CC(=O)c1ccc(NC(=O)COC(=O)c2cccc3c(=O)c4ccccc4[nH]c23)cc1 | SK-OV-3 ovarian | > 100 µM |
| CC(=O)OCC1OC(n2c(Br)nc3c2c(=O)n(C)c(=O)n3C)C(OC(C)=O)C1OC(C)=O (stereo not drawn) | SK-OV-3 ovarian | > 100 µM |
| COC(=O)Nc1nc2ccc(S(=O)(=O)N3CCOCC3)cc2[nH]1 | SK-OV-3 ovarian | > 100 µM |

Hi there! I need TGI for each item below, if you can.
1. CSc1nc(N)c2c(-c3ccccc3)c3c(nc2n1)CCCC3
2. C[C@@H]1CC(=O)C[C@@H]2CC[C@H]3[C@@H]4CC[C@H](OC(=O)c5cccc6cc7ccccc7nc56)[C@H]4CC[C@@H]3[C@H]21

Result:
["> 100 µM", "66.7 µM"]

// batch mode: one TGI value per listed entry
1. O=C1CC/C(=C/COc2cc(=O)oc3ccccc23)O1
2. CC1(C)OC2OC(C(COS(=O)(=O)C(F)(F)F)N=[N+]=[N-])C(OC(=O)c3ccccc3)C2O1 (stereo not drawn)

Result:
> 100 µM
> 100 µM

Okay, here is my list. What is TGI for each of these?
1. CCSC[C@@H]1C[C@](O)(c2ccc(F)cc2)[C@@H](c2ccc(F)cc2)O1
2. NC(Cc1ccc2nc3c4ccccc4c(=O)cc-3oc2c1)C(=O)O (stereo not drawn)
3. CN(CCc1ccccn1)C(=S)N/N=C(\c1ccccc1)c1ccccn1
4. O=C(/C(=C\I)c1ccccc1)c1ccccc1
5. Brc1cccc(C2ON=C(c3ccccc3)N2C23CC4CC(CC(C4)C2)C3)c1 (stereo not drawn)

Result:
1. 38 µM
2. > 100 µM
3. 2.19 µM
4. 32.3 µM
5. > 10 µM

Hey, quick one: what's TGI for each of these?
1. C(#CP(c1ccccc1)c1ccccc1)P(C#CP(c1ccccc1)c1ccccc1)c1ccccc1
2. Cc1cc2nc3c(C#N)c4c(c(-c5ccc(Cl)cc5)n3c2cc1C)CCC4
3. O=c1[nH]c(NCc2ccc(Cl)cc2)nc2nc[nH]c12
4. CCC(C)C(=O)OCC(=O)c1ccc(-c2ccccc2)cc1 (stereo not drawn)
5. NC(=O)NC1C(C(=O)O)N(Cc2ccccc2)C(=O)N1Cc1ccccc1 (stereo not drawn)
6. O=C1CSC(c2ccc(Cl)cc2Cl)N1c1ccc(Oc2ccc(Cl)cc2)c(Cl)c1 (stereo not drawn)
7. O=C(O)/C=C/c1c[nH]c(=O)[nH]c1=O
8. COc1cc2oc3c(c(=O)c2c(O)c1/C=C/C(C)C)C(C=C(C)C)Oc1cc(O)ccc1-3 (stereo not drawn)

Result:
1: 26.1 µM; 2: 34.1 µM; 3: > 100 µM; 4: > 100 µM; 5: > 100 µM; 6: 85.6 µM; 7: > 500 µM; 8: 30.5 µM

Provide TGI for all items below, preserving their order.
1. CCOc1ccc2c(c1)c(CC(=O)O)cn2C
2. CCC(C)C1=C(O)[N+]2([O-])Oc3ccc(-c4c(O)c(O)c(-c5ccc(OC(C)=O)cc5)c(OC(C)=O)c4OC(C)=O)cc3OC2(C(C)CC)C(=O)N1O (stereo not drawn)

Result:
["> 100 µM", "> 50 µM"]
